# System: Madurella mycetomatis MM55
# procedure.summary: growth relative to untreated control; higher = less inhibition, active = 20 or less
# measurement.parameters: 25 µM
reported.endpoint: growth (%)
# number only, unit % dropped from output

CCc1ccc2c(c1O)CCN(C)C2Cc1ccccc1Cl (stereo not given): 21.4
O=C(NCCN1CCCCC1)c1cncc(-c2ccc(Cl)c(Cl)c2)c1: 52.1
CCC(CC)COC(=O)[C@H](C)NP(=O)(OC[C@H]1O[C@@](C#N)(c2ccc3c(N)ncnn23)[C@H](O)[C@@H]1O)Oc1ccccc1 (stereo not given in full): 95.1
FC(F)(F)CNc1ncc2nc(Nc3cc(Cl)cc(Cl)c3)n(C3CCNCC3)c2n1: 70.4

In the following, a different compound is considered.
Notebook: "Cc1cc2c(cc1Cl)N(C(=O)Nc1cc(F)cc(-c3cncnc3)c1)CC2" , growth read as 106

----------
# Tested on: Falciformispora senegalensis CBS197.79
# procedure.summary: growth relative to untreated control; higher = less inhibition, active = 20 or less
# measurement.parameters: 100 µM
reported.endpoint: growth (%)
# number only, unit % dropped from output

C[C@H](CS)C(=O)N1CCC[C@H]1C(=O)O: 91.7

Notebook: "Cc1ccc(NC(=O)c2ccc(CN3CCN(C)CC3)cc2)cc1Nc1nccc(-c2cccnc2)n1" , growth read as 103

Notebook: "CS(=O)(=O)N1CCC(NC(=O)c2cc3ccc(C(F)(F)F)cc3[nH]2)CC1" , growth read as 84.8

Notebook: "COc1ccc2c(O[C@@H]3C[C@H]4C(=O)N[C@]5(C(=O)NS(=O)(=O)C6CC6)C[C@H]5/C=C\CCCCN(C)C(=O)[C@@H]4C3)cc(-c3nc(C(C)C)cs3)nc2c1C" , growth read as 100

----------
# Tested on: Falciformispora senegalensis CBS197.79
# procedure.summary: growth relative to untreated control; higher = less inhibition, active = 20 or less
# measurement.parameters: 100 µM
# growth per entry
# number only, unit % dropped from output

CN(C)c1ncc2nc(Nc3cc(Cl)cc(C(F)(F)F)c3)n(C3CCNCC3)c2n1: 99.5
CC(Nc1ccc2c(c1)OCCCO2)C(=O)Nc1cc(C(F)(F)F)ccc1N1CCOCC1 (stereo unspecified): 86.1
CCOCCCNc1nc2cc(OC)c(OC)cc2c2nc(-c3ccccc3)nn12: 89.3
OC[C@H]1NC[C@H](O)[C@@H](O)[C@H]1O: 100
CN(C)C[C]1[CH][CH][CH][C]1CNc1ccnc2cc(Cl)ccc12.[CH]1[CH][CH][CH][CH]1.[Fe]: 58

Notebook: "C=CC[C@@H]1/C=C(\C)C[C@H](C)C[C@H](OC)[C@H]2O[C@@](O)(C(=O)C(=O)N3CCCC[C@H]3C(=O)O[C@H](/C(C)=C/[C@@H]3CC[C@@H](O)[C@@H](OC)C3)[C@H](C)[C@@H](O)CC1=O)[C@H](C)C[C@@H]2OC" , growth read as 105

Notebook: "CNC(=O)c1cc(Oc2ccc(NC(=O)Nc3ccc(Cl)c(C(F)(F)F)c3)cc2)ccn1" , growth read as 94.4

Notebook: NC1CCc2nc(-c3cccnc3)nc(Nc3ccc(C(F)(F)F)cc3)c2C1 (stereo unspecified) , growth read as 13.8

Notebook: "Cc1ccc(Cl)cc1NC(=O)c1c(-c2ccccc2Cl)noc1C" , growth read as 80.1

Notebook: CCC(CC)COC(=O)[C@H](C)NP(=O)(OC[C@H]1O[C@@](C#N)(c2ccc3c(N)ncnn23)[C@H](O)[C@@H]1O)Oc1ccccc1 (stereo partly specified) , growth read as 96.3

Notebook: "Fc1ccc([C@@H]2CCNC[C@H]2COc2ccc3c(c2)OCO3)cc1" , growth read as 15.3

Notebook: Fc1cccc(-c2ccc3c(c2)CC(NCc2c[nH]c4cnccc24)C3)c1 (stereo unspecified) , growth read as 14.3

Notebook: CC(=O)c1nn(-c2c(Cl)cc(C(F)(F)F)cc2Cl)c(N)c1S(C)=O (stereo unspecified) , growth read as 83.2

Notebook: "CN(C)C(=N)N=C(N)N" , growth read as 105

Notebook: O=S(=O)(NCC1(O)CCOc2ccccc21)c1ccccc1F (stereo unspecified) , growth read as 113

Notebook: "C[C@H](NC(=O)c1cc2c(F)cccc2[nH]1)c1ccccc1" , growth read as 68.4

Notebook: "COC(=O)N[C@H](C(=O)N[C@@H](Cc1ccccc1)[C@@H](O)CN(Cc1ccc(-c2ccccn2)cc1)NC(=O)[C@@H](NC(=O)OC)C(C)(C)C)C(C)(C)C" , growth read as 108
